Target: recombinant human PREP (Homo sapiens, UniProt P48147)
Construct: purchased R&D System
Sequence (P48147 1-710): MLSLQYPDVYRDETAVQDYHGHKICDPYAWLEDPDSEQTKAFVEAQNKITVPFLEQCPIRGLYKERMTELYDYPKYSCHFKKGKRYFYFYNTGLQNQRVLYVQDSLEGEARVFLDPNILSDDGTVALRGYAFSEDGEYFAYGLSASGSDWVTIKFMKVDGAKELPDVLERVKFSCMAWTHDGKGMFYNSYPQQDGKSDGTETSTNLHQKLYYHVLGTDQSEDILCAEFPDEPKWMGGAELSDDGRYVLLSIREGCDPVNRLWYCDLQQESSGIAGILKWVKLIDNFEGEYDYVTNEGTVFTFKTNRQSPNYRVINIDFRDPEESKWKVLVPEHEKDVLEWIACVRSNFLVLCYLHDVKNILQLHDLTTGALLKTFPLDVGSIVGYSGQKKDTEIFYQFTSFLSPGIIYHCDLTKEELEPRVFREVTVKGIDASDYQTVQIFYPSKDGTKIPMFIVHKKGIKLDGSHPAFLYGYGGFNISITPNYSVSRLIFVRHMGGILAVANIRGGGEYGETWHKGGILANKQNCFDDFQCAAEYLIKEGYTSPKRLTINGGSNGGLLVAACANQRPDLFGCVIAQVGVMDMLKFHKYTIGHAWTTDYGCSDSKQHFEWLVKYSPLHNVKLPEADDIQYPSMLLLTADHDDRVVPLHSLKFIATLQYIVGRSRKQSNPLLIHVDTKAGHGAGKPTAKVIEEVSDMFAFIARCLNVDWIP
Test: PREP inhibition, fluorogenic substrate Z-Gly-Pro-AMC
Assay type: biochemical
Settings: Inhibitory Activity (IC50, nM) PREP, 25° C., Z-Gly-Pro-AMC substrate
READOUT NAME: IC50 (nM)
Enter your answer as a number in nM; do not include the unit.

Examples with answers:
STRUCTURE AS SMILES: N#C[C@@H]1CC(F)(F)CN1C(=O)CN1CC[C@H](Oc2ccnc3c(C(F)(F)F)cccc23)C1
READOUT NAME: IC50
TEST RESULT: 3080

STRUCTURE AS SMILES: COc1cc2nccc(O[C@H]3CCN(CC(=O)N4CCC[C@H]4C#N)C3)c2cc1OC
READOUT NAME: IC50
TEST RESULT: 3020

STRUCTURE AS SMILES: COc1ccc2c(O[C@H]3CCN(CC(=O)N4CCC[C@H]4C#N)C3)ccnc2c1
READOUT NAME: IC50
TEST RESULT: 2490

Now let's try a different one.
Value of IC50 reported for the compound `COc1ccc2nccc(O[C@H]3CCN(CC(=O)N4CC(F)(F)C[C@H]4C#N)C3)c2c1` is 5670

###

Target: recombinant human PREP (Homo sapiens, UniProt P48147)
Construct: purchased R&D System
Assay: PREP inhibition, fluorogenic substrate Z-Gly-Pro-AMC
Assay type: biochemical
Conditions: Inhibitory Activity (IC50, nM) PREP, recombinant human PREP
READOUT NAME: IC50
Quick note: number first, unit second.

So for COc1cccc2c(OC3CCN(CC(=O)N4C[C@@H](F)C[C@H]4C#N)CC3)ccnc12 [Example 438] , the logged IC50 turned out to be 156 nM

Value of IC50 reported for the molecule N#C[C@@H]1C[C@H](F)CN1C(=O)CN1CCC(Nc2cccc3ncc(F)cc23)CC1 [Example 349] is 5200 nM

Looking up N#C[C@@H]1C[C@H](F)CN1C(=O)CN1CC[C@H](Nc2ccc(C(=O)Nc3ccncc3)c3ncccc23)C1 [Example 292] , I found its IC50 recorded as 1470 nM

Record summary for N#C[C@@H]1C[C@H](F)CN1C(=O)CN1CCC(Nc2cccc3c(Cl)nccc23)CC1 [Example 351] : reported IC50 = 3280 nM

IC50 recorded for this molecule, N#C[C@@H]1C[C@H](F)CN1C(=O)CN1CC[C@H](Nc2cccc3ncc(F)cc23)C1 [Example 255] , is 2210 nM

Item: COc1cnc2cccc(N[C@@H]3CCN(CC(=O)N4C[C@@H](F)C[C@H]4C#N)C3)c2c1 [Example 205] | IC50: 7500 nM

So for N#C[C@@H]1CCCN1C(=O)CN1CCC(Oc2ccnc3ccc(F)cc23)CC1 [Example 427] , the logged IC50 turned out to be 5010 nM

IC50 reading for N#C[C@@H]1CCCN1C(=O)CN1CCC(Nc2ccc(C(=O)Nc3ccncc3)c3ncccc23)CC1 [Example 401] : 1200 nM

Consider N#C[C@@H]1CCCN1C(=O)CN1CC[C@@H](Nc2ccc(F)c3ncccc23)C1 [Example 199] . Its measured IC50 is 7250 nM

Query N#C[C@@H]1C[C@H](F)CN1C(=O)CN1CCC(Nc2cncc3ccncc23)CC1 [Example 360] yields IC50 of 16400 nM

The molecule listed as COc1ccc(N[C@H]2CCN(CC(=O)N3C[C@@H](F)C[C@H]3C#N)C2)c2cccnc12 [Example 263] has a reported IC50 of 3470 nM

Entry N#C[C@@H]1C[C@H](F)CN1C(=O)CN1CCC(Nc2cccc3sccc23)CC1 [Example 336] , IC50 reported as 8500 nM

The measured IC50 associated with N#C[C@@H]1CCCN1C(=O)CN1CC[C@H](Nc2ccc(OC(F)(F)F)c3ncccc23)C1 [Example 246] reads 11300 nM

Measured IC50 of N#C[C@@H]1CCCN1C(=O)CN1CCC(Nc2ccc(C(=O)Nc3ncccn3)c3ncccc23)CC1 [Example 402] : 359 nM

Form field IC50, entry Cc1cnc2cccc(N(C)[C@H]3CCN(CC(=O)N4C[C@@H](F)C[C@H]4C#N)C3)c2c1 [Example 155] : 2540 nM

What the record says about Cc1ccc2ncccc2c1N[C@H]1CCN(CC(=O)N2CCC[C@H]2C#N)C1 [Example 239] : IC50 is 9980 nM

Reported IC50 of N#C[C@@H]1C[C@H](F)CN1C(=O)CN1CCC(Oc2ccnc3ccc(C(F)(F)F)cc23)CC1 [Example 411] : 10600 nM

IC50 measured on N#C[C@@H]1CCCN1C(=O)CN1CC[C@H](Nc2cc(F)cc3ncccc23)C1 [Example 236] = 8900 nM

Entry N#C[C@@H]1CCCN1C(=O)CN1CC[C@H](Nc2ccc(C(=O)Nc3ccncc3)c3ncccc23)C1 [Example 291] ; IC50 = 2110 nM

According to the records, this molecule COc1cnc2cccc(N[C@H]3CCN(CC(=O)N4CCC[C@H]4C#N)C3)c2c1 [Example 233] displays IC50 of 11500 nM

For reference, reported IC50 for N#C[C@@H]1C[C@H](F)CN1C(=O)CN1CC[C@H](Nc2ccc(O)c3ncccc23)C1 [Example 276] stands at 3030 nM

###

Target: Recombinant human FAP (Homo sapiens, UniProt Q12884)
Construct: purchased R&D systems
Sequence (Q12884 whole entry): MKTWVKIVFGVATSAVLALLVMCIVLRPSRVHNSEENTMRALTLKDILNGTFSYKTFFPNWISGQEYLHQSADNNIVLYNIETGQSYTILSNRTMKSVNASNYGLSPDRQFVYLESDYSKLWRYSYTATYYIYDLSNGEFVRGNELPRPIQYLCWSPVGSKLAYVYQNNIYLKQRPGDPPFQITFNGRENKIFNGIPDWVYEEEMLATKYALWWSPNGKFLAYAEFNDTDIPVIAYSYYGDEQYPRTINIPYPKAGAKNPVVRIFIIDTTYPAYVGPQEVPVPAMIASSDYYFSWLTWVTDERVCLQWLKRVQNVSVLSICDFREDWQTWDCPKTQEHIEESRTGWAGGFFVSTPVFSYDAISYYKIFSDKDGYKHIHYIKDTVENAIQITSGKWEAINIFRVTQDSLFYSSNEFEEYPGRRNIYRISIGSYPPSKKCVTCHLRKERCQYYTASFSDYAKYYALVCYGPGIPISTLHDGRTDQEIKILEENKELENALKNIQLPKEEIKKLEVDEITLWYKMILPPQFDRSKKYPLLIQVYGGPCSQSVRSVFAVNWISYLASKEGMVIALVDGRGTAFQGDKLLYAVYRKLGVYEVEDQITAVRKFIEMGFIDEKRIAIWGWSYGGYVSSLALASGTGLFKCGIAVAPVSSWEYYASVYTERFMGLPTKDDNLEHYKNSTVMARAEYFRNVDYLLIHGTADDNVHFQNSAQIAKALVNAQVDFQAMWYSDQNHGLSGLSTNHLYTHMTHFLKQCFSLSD
Test: FAP FRET assay, FGF21-sequence FRET peptide substrate
Format: biochemical
Details: FRET peptide with human FGF21 sequence, 6 μM, 37° C.
# note: boundary value 6 nM maps to label 0; IC50 below it maps to label 1

Check out these entries, answers already filled in.
STRUCTURE AS SMILES: N#C[C@@H]1C[C@H](F)CN1C(=O)CN1CCC(Nc2cccc3ncc(C(F)(F)F)cc23)CC1
LABEL VALUE: label 0
--
STRUCTURE AS SMILES: N#C[C@@H]1C[C@H](F)CN1C(=O)CN1CC[C@@H](Nc2cc(C(F)(F)F)c3ncccc3c2)C1
LABEL VALUE: label 1

Task: Does the reported IC50 of the following compound sit strictly below 6 nM? `COc1cccc2c(OC3CCN(CC(=O)N4C[C@@H](F)C[C@H]4C#N)CC3)ccnc12`
Result: label 0

Task: Input `N#C[C@@H]1CCCN1C(=O)CN1CCC(Oc2ccnc3ccc(F)cc23)CC1` ; condition: IC50 strictly below 6 nM. Does it hold?
Result: label 1

###

Parameter IC50: see the listing below.
Target: DPP4 (Homo sapiens, UniProt P27487)
Sequence (P27487 whole entry): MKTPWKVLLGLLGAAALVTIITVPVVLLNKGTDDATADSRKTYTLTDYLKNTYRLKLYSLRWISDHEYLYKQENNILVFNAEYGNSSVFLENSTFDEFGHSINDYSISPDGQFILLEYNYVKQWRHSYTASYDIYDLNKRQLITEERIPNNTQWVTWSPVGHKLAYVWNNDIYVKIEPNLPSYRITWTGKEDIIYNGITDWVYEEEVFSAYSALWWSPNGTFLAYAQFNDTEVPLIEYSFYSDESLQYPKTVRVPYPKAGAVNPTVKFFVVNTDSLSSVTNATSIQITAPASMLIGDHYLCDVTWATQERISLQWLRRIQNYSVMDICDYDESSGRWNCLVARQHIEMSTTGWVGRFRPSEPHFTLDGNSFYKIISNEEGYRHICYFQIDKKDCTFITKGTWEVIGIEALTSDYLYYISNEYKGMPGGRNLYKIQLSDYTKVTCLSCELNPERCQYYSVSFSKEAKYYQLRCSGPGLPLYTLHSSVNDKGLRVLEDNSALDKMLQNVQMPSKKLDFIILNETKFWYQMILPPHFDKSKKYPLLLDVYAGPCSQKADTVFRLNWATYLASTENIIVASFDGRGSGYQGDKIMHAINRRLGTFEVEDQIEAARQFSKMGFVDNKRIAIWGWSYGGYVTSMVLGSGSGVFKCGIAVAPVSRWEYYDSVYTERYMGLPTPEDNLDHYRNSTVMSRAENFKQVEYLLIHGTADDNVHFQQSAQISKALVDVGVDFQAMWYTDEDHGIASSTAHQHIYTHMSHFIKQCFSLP
Experiment: DPP4 inhibition, fluorogenic substrate H-Gly-Pro-AMC
Format: biochemical
Parameters: purchased R&D Systems
Conditions: 25° C., H-Gly-Pro-AMC substrate

COMPOUND: COc1ccc2c(OC3CCN(CC(=O)N4C[C@@H](F)C[C@H]4C#N)CC3)ccnc2c1 [Example 129]
READOUT NAME: IC50
TEST RESULT: > 10000 nM
//
COMPOUND: N#C[C@@H]1CC(F)(F)CN1C(=O)CN1CC[C@H](Nc2cccc3sccc23)C1 [Example 9]
READOUT NAME: IC50
TEST RESULT: > 1000 nM
//
COMPOUND: N#C[C@@H]1CCCN1C(=O)CN1CC[C@H](Oc2ccnc3ccccc23)C1 [Example 61]
READOUT NAME: IC50
TEST RESULT: > 1000 nM
//
COMPOUND: N#C[C@@H]1CC(F)(F)CN1C(=O)CN1CC[C@H](Nc2ccc(-c3ccccc3)cc2)C1 [Example 14]
READOUT NAME: IC50
TEST RESULT: > 1000 nM
//
COMPOUND: N#C[C@@H]1CCCN1C(=O)CN1CC[C@@H](Nc2cnc3ccccc3c2)C1 [Example 17]
READOUT NAME: IC50
TEST RESULT: > 1000 nM

Sure, the documented IC50 for N#C[C@@H]1CCCN1C(=O)CN1CC[C@H](Oc2cccc3ncccc23)C1 [Example 66] is > 1000 nM

Recorded IC50 (compound N#C[C@@H]1CC(F)(F)CN1C(=O)CN1CC[C@H](Nc2cncc3ccoc23)C1 [Example 12] ): > 1000 nM

Briefly, IC50 measured for N#C[C@@H]1C[C@H](F)CN1C(=O)CN1CCC(Oc2ccnc3ccc(Cl)cc23)CC1 [Example 127] : > 10000 nM

The compound listed as N#C[C@@H]1CCCN1C(=O)CN1CCC(Nc2cc(F)cc3ncccc23)CC1 [Example 123] shows IC50 equal to > 10000 nM

Record N#C[C@@H]1CC(F)(F)CN1C(=O)CN1CC[C@H](Nc2cncc3ccccc23)C1 [Example 8] , field IC50: > 1000 nM
